# System: SNB-19 CNS
# Assay name: NCI tumour cell line growth inhibition, 48 h; in the data active = GI50 below about 0.43 µM; inactive = the rest
Possible outcomes: active, inactive

[
  {
    "Molecule": "COc1ccc(-n2nc(C(=O)NCC(=O)Nc3nc4cc(OC)ccc4s3)c3ccccc3c2=O)cc1",
    "Measured target": "SNB-19 CNS",
    "Assigned category": "inactive"
  },
  {
    "Molecule": "CCCCc1n(Cc2ccc3ccccc3n2)cc[n+]1Cc1ccc2ccccc2c1",
    "Measured target": "SNB-19 CNS",
    "Assigned category": "inactive"
  },
  {
    "Molecule": "CN1CCN(c2ccc(NC(=O)c3cncnc3Nc3ccc4c(ccn4Cc4cccc(F)c4)c3)cc2)CC1",
    "Measured target": "SNB-19 CNS",
    "Assigned category": "inactive"
  },
  {
    "Molecule": "COc1ccc2cn3c4ccc(O)cc4[nH]c(=O)c3c2c1",
    "Measured target": "SNB-19 CNS",
    "Assigned category": "active"
  },
  {
    "Molecule": "COC(=O)C[C@@H]1CC=CC(=O)/C1=C(O)/C=C/c1ccccc1",
    "Measured target": "SNB-19 CNS",
    "Assigned category": "inactive"
  },
  {
    "Molecule": "COc1cc(NC(=O)c2cc3ccccc3cc2O)c(OC)cc1Cl",
    "Measured target": "SNB-19 CNS",
    "Assigned category": "inactive"
  },
  {
    "Molecule": "COc1ccc(-c2cncn2-c2ccc(-c3nc4cc(OC)c(OC)c(OC)c4s3)cc2)cc1N",
    "Measured target": "SNB-19 CNS",
    "Assigned category": "inactive"
  },
  {
    "Molecule": "CN1CCC(n2cnc(-c3ccc(F)cc3)c2-c2ccnc(Nc3ccccc3)n2)CC1",
    "Measured target": "SNB-19 CNS",
    "Assigned category": "inactive"
  },
  {
    "Molecule": "COc1cc2c3c(n(CCCN=[N+]=[N-])c(=O)c2cc1OC)-c1ccc(NC(C)=O)cc1C3=O",
    "Measured target": "SNB-19 CNS",
    "Assigned category": "inactive"
  },
  {
    "Molecule": "O=CCC(O)C(O)C(O)CO (stereo not given)",
    "Measured target": "SNB-19 CNS",
    "Assigned category": "inactive"
  }
]

---

# Test system: BT-549 breast
# Assay name: NCI tumour cell line growth inhibition, 48 h
TGI reference

[
  {
    "Molecule": "CCOC1Oc2ccccc2-c2nc(N)ncc21 (stereo unspecified)",
    "Comparison symbol": ">",
    "TGI (µM)": 100
  },
  {
    "Molecule": "Oc1cc(F)cc2cccnc12",
    "Comparison symbol": "=",
    "TGI (µM)": 70.2
  },
  {
    "Molecule": "CC(NNC(=S)N1CCN(c2ccccn2)CC1)c1cccc[n+]1[O-] (stereo unspecified)",
    "Comparison symbol": ">",
    "TGI (µM)": 100
  },
  {
    "Molecule": "CN(C)c1ccc(/C=C2\\C[C@H]3[C@@H]4CC=C5C[C@@H](O)CC[C@]5(C)[C@H]4CC[C@]3(C)[C@H]2O)cc1",
    "Comparison symbol": "=",
    "TGI (µM)": 43.3
  },
  {
    "Molecule": "Nc1ncc(-c2ccc3ncnc(N4CCc5cc(F)c(Cl)cc54)c3c2)cc1C(F)(F)F",
    "Comparison symbol": "=",
    "TGI (µM)": 8.33
  },
  {
    "Molecule": "C=C(C)C1Cc2cc(C(C)=O)ccc2O1 (stereo unspecified)",
    "Comparison symbol": ">",
    "TGI (µM)": 100
  }
]

Data provenance: PubChem BioAssay (NCI)
